Recorded solubility kinetic for the following molecules
- assay_conditions: buffer; pH 7.4; 200.0 µM
Record the value in µg/mL, omitting the unit from your answer.

Record excerpt, results attached:
COCCNC(=O)c1cc2cc(Cl)cc(Cl)c2oc1=O	9.2
CS(=O)(=O)c1ccc2nc(NC(=O)CN3CCOCC3)sc2c1	40.6
COc1ccc(NC(=O)COc2ccc3c(c2)OCO3)cc1	39.5

Request: Form field: reported solubility kinetic of CC(Cc1ccccc1)NC=O (configuration not stated)
Result: 24.4

Request: Could you share which solubility kinetic value was measured for `CCOc1ccc(NC(=O)NCc2cccn2C)cc1` ?
Result: 9.2

Request: Tell me the measured solubility kinetic of `O=C(NC12CC3CC(CC(C3)C1)C2)c1ccco1` , please.
Result: 36.5

Request: Quick check: solubility kinetic of `Cc1csc(NC(=O)CN2C(=O)COc3ccc(Cl)cc32)n1` ?
Result: 2.1

Request: I have this molecule here, Cc1ccnc(NC(=O)c2ccc3c(c2)NC(=O)C(C)S3)c1 (configuration not stated) , and I need its recorded solubility kinetic.
Result: 6.6

Request: Find the recorded solubility kinetic belonging to `O=C(NCCc1c[nH]c2ccccc12)c1ccccc1Cl` and report it.
Result: 23.2

Request: # solubility kinetic lookup, item CC(Cc1cccs1)NCc1ccc(Cl)cc1 (configuration not stated)
Result: 22.6

Request: So what's the measured solubility kinetic for this one? O=c1c2[nH]c3ccc(F)cc3c2ncn1CC1CCCO1 (configuration not stated)
Result: 3.9

---

- assay_conditions: buffer; pH 7.4; 200.0 µM
quantity: solubility kinetic

// worked examples, solubility kinetic included
O=C(CN1CCN(c2ccccc2F)CC1)NC(=O)NC1CCCCC1	> 54.4 µg/mL
COc1cccc(CNC(=O)CC(NC(C)=O)c2ccccc2)c1 (stereo not given)	> 49 µg/mL
Cn1cccc1C(=O)NC1CCCCCC1	> 33 µg/mL

Request: Recorded solubility kinetic of `Cc1c(C(=O)O)cccc1-c1ccc(/C=C2\SC(=O)NC2=O)o1` , please.
Result: > 49.4 µg/mL

Request: Recorded solubility kinetic for `COc1ccc(C(=O)NCCCn2ccnc2)cc1[N+](=O)[O-]` , please?
Result: > 45.6 µg/mL

Request: What value of solubility kinetic has been reported for the following molecule? `CCOC(=O)Cc1csc(NC(=O)/C=C/c2ccccc2Cl)n1`
Result: < 0.4 µg/mL

Request: Return reported solubility kinetic; argument: `CN(C(=O)COC(=O)c1ccc2c(c1)OCO2)C1CCCCC1`
Result: > 47.9 µg/mL

Request: Requested field: solubility kinetic. Item: CN(CC1COc2ccccc2O1)C(=O)c1ccc(N(C)C)cc1 (stereo not given)
Result: > 49 µg/mL

Request: Dear colleague, I am looking for the recorded solubility kinetic of the following molecule: `NNC(=O)c1oc2ccccc2c1-n1cccc1`
Result: > 36.2 µg/mL

Request: Can you look up the measured solubility kinetic of `CCCNC(=O)Cc1c(C)oc2ccccc12` for me?
Result: > 34.7 µg/mL

---

- assay_conditions: buffer; pH 7.4; 200.0 µM
quantity: solubility kinetic

# annotated cases, reported solubility kinetic shown
COc1ccccc1NC(=O)c1cc(C)oc1C	> 36.8 µg/mL
C/C(=N\NC=O)c1ccncc1	> 24.5 µg/mL
OC(CN1CCOCC1)Cn1cnc2ccccc21 (stereo not given)	> 39.2 µg/mL
COc1ccc2c(c1)c(C(=O)O)c(C)n2CCc1ccc(OC)c(OC)c1	> 55.4 µg/mL
CSc1ncccc1C(=O)Nc1ccc(C)cn1	> 38.9 µg/mL

Request: Consider the molecule shown here: `COc1ccccc1NC(=O)COC(=O)c1ccccn1` What is its recorded solubility kinetic?
Result: > 42.9 µg/mL

---

- assay_conditions: buffer; pH 7.4; 200.0 µM
quantity: solubility kinetic

Illustrative cases are given below, each with its answer.
CCOc1ccc(C(=O)Oc2ccc(NC(C)=O)cc2)cc1	< 0.6 µg/mL
CN1CCN(c2ccccc2NC(=O)c2cccc([N+](=O)[O-])c2)CC1	> 51.1 µg/mL
Nc1cccc(CCc2ccncc2)c1	> 29.7 µg/mL
NC(=O)COC(=O)c1cc([N+](=O)[O-])ccc1NCCO	> 42.5 µg/mL

Request: I would be grateful if you could share the reported solubility kinetic for `O=C(OCc1cc(=O)n2ccsc2n1)c1ccccc1NCCO` .
Result: > 51.8 µg/mL

Request: Please look up its solubility kinetic: `CC(=O)N1C(C)(C)CC(=NOC(=O)c2ccc(C)cc2)CC1(C)C`
Result: > 49.6 µg/mL

Request: GET /values?readout=solubility kinetic&item= `Cc1ccc(CNC(=O)CNC(=O)c2ccco2)cc1`
Result: > 40.8 µg/mL

Request: Which measured solubility kinetic value corresponds to `N#C/C(=C(\O)c1cc(Cl)sc1Cl)c1nc2ccccc2[nH]1` ?
Result: < 0.2 µg/mL

Request: State the recorded solubility kinetic for this entry: `COc1ccc(CCNC(=O)/C=C/C(=O)O)cc1`
Result: > 37.4 µg/mL

---

Catalogue of solubility kinetic readings, one per entry.
- assay_conditions: buffer; pH 7.4; 200.0 µM

Worked cases, answers included:
O=c1[nH]cccc1-c1nc2ccccc2n1Cc1ccc(Cl)cc1	> 50.4 µg/mL
CC(NC(=O)COC(=O)c1cc(Cl)nc(Cl)c1)c1ccccc1 (stereo not given)	> 53 µg/mL
COc1cc(C)ccc1Oc1nc(-c2ccccc2O)nc2ccccc12	< 0.4 µg/mL
CCCc1c(O)nc(SCC(=O)NCc2ccco2)[nH]c1=O	> 48.5 µg/mL
Cc1ccnc(SCC(=O)Nc2cc(C)on2)n1	> 39.6 µg/mL

Request: Item `O=C(NC(=S)NCCCN1CCOCC1)c1ccco1` has what recorded solubility kinetic?
Result: > 44.6 µg/mL

Request: Given the molecule `COc1ccc(Cl)cc1NC(=O)CN1CCc2ccccc2C1` , what is its reported solubility kinetic?
Result: < 0.4 µg/mL

Request: # solubility kinetic lookup, item `COc1ccc(C)cc1N(CC(=O)N1CCCC1)S(C)(=O)=O`
Result: > 49 µg/mL

Request: Report solubility kinetic for `CCc1ccc(OC)c(S(=O)(=O)NCc2cccs2)c1` please.
Result: > 46.7 µg/mL

Request: Tell me the measured solubility kinetic of `CCC1(CC)Cc2ccccc2C(=O)N1` , please.
Result: > 30.5 µg/mL

---

This listing pairs compounds with measured solubility kinetic.
- assay_conditions: buffer; pH 7.4; 200.0 µM

Request: Need solubility kinetic, item `Cc1ccc(-c2csc(NC(=O)c3cccc(C)c3)c2C(=O)O)cc1`
Result: > 52.7 µg/mL

---

- assay_conditions: buffer; pH 7.4; 200.0 µM
// values below are reported solubility kinetic

// solved cases for solubility kinetic follow
Fc1ccc(NC2=NCCCCC2)cc1	> 30.9 µg/mL
COC(=O)c1ccc(N2CCS(=O)(=O)CC2)cc1	> 40.4 µg/mL

Field: next molecule
Request: Look up solubility kinetic for this molecule: `Nc1cc(Cl)ccc1C(=O)OCC(=O)N1CCOCC1`
Result: > 44.8 µg/mL

---

- assay_conditions: buffer; pH 7.4; 200.0 µM
quantity: solubility kinetic

Here is how some compounds turned out for solubility kinetic.
COc1ccc2nc(NC(=O)c3cccs3)sc2c1	< 0.3 µg/mL
CSc1ncccc1C(=O)N(C)CC(=O)Nc1cccc(F)c1	> 50 µg/mL
CCOc1ccc(C(CC(=O)O)NC(=O)Cc2ccc(Cl)cc2)cc1 (stereo unspecified)	> 54.3 µg/mL
CC(C)(C)OC(=O)N1CCC(C(=O)NCC2CCCO2)CC1 (stereo unspecified)	> 46.9 µg/mL
O=[N+]([O-])c1cccnc1Oc1ccc(C2SCCS2)cc1	< 0.3 µg/mL

Request: What does the data say about its solubility kinetic? Entry: `COC(=O)c1ccc(S(=O)(=O)N2CCC(O)CC2)n1C`
Result: > 45.4 µg/mL

Request: What value of measured solubility kinetic is listed for O=C(CN1C(=O)NC2(CCc3ccccc32)C1=O)Nc1c(Cl)cccc1Cl (stereo unspecified) ?
Result: > 60.6 µg/mL

Request: Quick one: solubility kinetic for Cc1ccc(NC(=O)C2OCCc3ccccc32)cc1Cl (stereo unspecified) ?
Result: < 0.6 µg/mL

Request: # get_value(readout='solubility kinetic', item= COc1ccc(CCNC2CCC(c3ccccc3)CC2)cc1 (stereo unspecified) )
Result: > 46.4 µg/mL

Request: Entry `CNc1nc(SC)nc2ccccc12` has what solubility kinetic?
Result: > 30.8 µg/mL

Request: Please report the recorded solubility kinetic for O=C1c2ccccc2NC(c2ccccc2O)N1O (stereo unspecified) .
Result: > 38.4 µg/mL

---

- assay_conditions: buffer; pH 7.4; 200.0 µM
Consider the following compounds and their measured solubility kinetic readings.

# example entries with known answers
Cc1ccccc1OCC(=O)N1CCCCCCC1	> 39.2 µg/mL
Br.Fc1ccccc1CNCc1ccc2c(c1)OCO2	> 51 µg/mL
CC(=O)OCC[N+](C)(C)C.[O-][Cl+3]([O-])([O-])[O-]	> 36.8 µg/mL
CCOC(=O)C1CCCN(S(=O)(=O)c2ccc(NC(C)=O)cc2)C1 (stereo not given)	> 53.2 µg/mL

Request: Need solubility kinetic, item `O=C(Nc1ccc(Cl)cn1)c1ccc(Oc2ccccc2)cc1`
Result: < 0.3 µg/mL
